System: MGC-803
EXPERIMENT_NOTES: cells
CONDITION_INFO: Homo sapiens, MGC-803, 72 h
Description: Antiproliferative activity against human MGC-803 cells measured after 72 hrs by MTT assay
REPORTED_METRIC: IC50 (nM)

Completed entries (count: 5):
N#Cc1c(Nc2ccccc2)nc(SCC(=O)OCCCCOc2no[n+]([O-])c2S(=O)(=O)c2ccccc2)nc1-c1ccccc1 | 7000
N#Cc1c(Nc2cccc(Br)c2)nc(SCC(=O)N2CCN(CCOc3no[n+]([O-])c3S(=O)(=O)c3ccccc3)CC2)nc1-c1ccccc1 | 1330
Cc1cccc(Nc2nc(SCC(=O)N3CCN(CCOc4no[n+]([O-])c4S(=O)(=O)c4ccccc4)CC3)nc(-c3ccccc3)c2C#N)c1 | 1250
N#Cc1c(Nc2ccc(C(F)(F)F)cc2)nc(SCC(=O)N2CCN(CCOc3no[n+]([O-])c3S(=O)(=O)c3ccccc3)CC2)nc1-c1ccccc1 | 1560
N#Cc1c(Nc2ccccc2)nc(SCC(=O)N2CCC(Oc3no[n+]([O-])c3S(=O)(=O)c3ccccc3)CC2)nc1-c1ccccc1 | 2570

[P] N#Cc1c(Nc2ccccc2C(F)(F)F)nc(SCC(=O)N2CCN(CCOc3no[n+]([O-])c3S(=O)(=O)c3ccccc3)CC2)nc1-c1ccccc1
[Q] CCCc1ccc(Nc2nc(SCC(=O)N3CCN(CCOc4no[n+]([O-])c4S(=O)(=O)c4ccccc4)CC3)nc(-c3ccccc3)c2C#N)cc1
[R] N#Cc1c(Nc2ccccc2)nc(SCC(=O)NCCOc2no[n+]([O-])c2S(=O)(=O)c2ccccc2)nc1-c1ccccc1
[S] N#Cc1c(-c2ccccc2)nc(SCC(=O)N2CCN(CCOc3no[n+]([O-])c3S(=O)(=O)c3ccccc3)CC2)nc1N1CCOCC1
Please list these compounds in decreasing order of IC50. Put the labels in the requested order and list them out. S, R, P, Q

[I] N#Cc1c(Nc2ccc(Br)cc2)nc(SCC(=O)N2CCN(CCOc3no[n+]([O-])c3S(=O)(=O)c3ccccc3)CC2)nc1-c1ccccc1
[II] N#Cc1c(Nc2ccccc2)nc(SCC(=O)OCC#CCOc2no[n+]([O-])c2S(=O)(=O)c2ccccc2)nc1-c1ccccc1
// task: argmin of IC50 over [ I , II ] Your answer should be the label of the entry you select. I
(I: 1390 nM, II: 2670 nM)
